Experiment: Inhibition of Bocillin FL binding to PBP3 in Pseudomonas aeruginosa PAO1 membranes
So I've got a bunch of molecules here, and I need their IC50 values.
Give your result in µg/mL as a bare value.

**Q:** Name the reported IC50 value associated with the molecule "CC(C)(O/N=C(\C(=O)N[C@@H]1C(=O)N2C(C(=O)[O-])=C(C[n+]3ccccc3)CS[C@H]12)c1csc(N)n1)C(=O)O"
**A:** 0.1

**Q:** Name the reported IC50 value associated with the molecule "C[C@@H](O)[C@H]1C(=O)N2C(C(=O)O)=C(S[C@@H]3CN[C@H](C(=O)N(C)C)C3)[C@H](C)[C@H]12"
**A:** 0.08

**Q:** Name the reported IC50 value associated with the molecule "C[C@H]1[C@H](NC(=O)/C(=N\OC(C)(C)C(=O)O)c2csc(N)n2)C(=O)N1S(=O)(=O)O"
**A:** 0.03

**Q:** Name the reported IC50 value associated with the molecule C[C@@H](O)[C@H]1C(=O)N2C(C(=O)O)=C(SCCNC=N)C[C@H]12 [IMIPENEM ANHYDROUS]
**A:** 0.09

**Q:** Name the reported IC50 value associated with the molecule "C[C@@H](O)[C@H]1C(=O)N2C(C(=O)O)=C(S[C@@H]3CN[C@H](CNS(N)(=O)=O)C3)[C@H](C)[C@H]12"
**A:** 0.07
